Give Activity for every item shown.
target: Signal peptidase I (Escherichia coli K-12); assay: Inhibition of full length Escherichia coli His6-tagged LepB expressed in Escherichia coli C43(DE3) assessed as residual activity at 2.5 uM using dabcyl-VEVGGTATAGAFSRPGLE-(EDANS) as substrate preincubated for 10 mins followed by substrate addition measured for 2 hrs by FRET assay relative to control

Per the records, this compound ( `CCCCc1ccc(-c2ccc(C(=O)N[C@@H](CCN)C(=O)N[C@H](C(=O)N[C@@H](C)C(=O)N[C@@H](CCCCN)C(=O)N[C@@H](C)B3O[C@@H]4C[C@@H]5C[C@@H](C5(C)C)[C@]4(C)O3)[C@H](C)O)cc2)cc1` ) has Activity equal to 3.33%

Per the records, this compound ( `CCCCCCc1ccc(-c2ccc(C(=O)N3CCC[C@H]3C(=O)N[C@H](C(=O)N[C@@H](C)C(=O)N[C@@H](CC(N)=O)C(=O)N[C@@H](C)B(O)O)[C@H](C)O)cc2)cc1` ) has Activity equal to 7.49%

Per the records, this compound ( CCCCCCc1ccc(-c2ccc(C(=O)N3CC(CN)C[C@H]3C(=O)N[C@H](C(=O)N[C@@H](C)C(=O)N[C@@H](CC(N)=O)C(=O)N[C@@H](C)B3O[C@@H]4C[C@@H]5C[C@@H](C5(C)C)[C@]4(C)O3)[C@H](C)O)cc2)cc1 (stereo partly specified) ) has Activity equal to 0.353%

Per the records, this compound ( CCCCCCc1ccc(-c2ccc(C(=O)N3CC(CN)C[C@H]3C(=O)N[C@H](C(=O)N[C@@H](C)C(=O)N[C@@H](CC(N)=O)C(=O)N[C@@H](C)B(O)O)[C@H](C)O)cc2)cc1 (stereo partly specified) ) has Activity equal to 24.8%

Per the records, this compound ( `CCCCCCCCCC(=O)N1CCC[C@H]1C(=O)N[C@H](C(=O)N[C@@H](C)C(=O)N[C@@H](CC(N)=O)C(=O)N[C@@H](C)B1O[C@@H]2C[C@@H]3C[C@@H](C3(C)C)[C@]2(C)O1)[C@H](C)O` ) has Activity equal to 17.2%

Per the records, this compound ( `CCCCCCc1ccc(-c2ccc(C(=O)N3CCC[C@H]3C(=O)N[C@H](C(=O)N[C@@H](C)C(=O)N[C@@H](CC(N)=O)C(=O)N[C@@H](C)B3O[C@@H]4C[C@@H]5C[C@@H](C5(C)C)[C@]4(C)O3)[C@H](C)O)cc2)cc1` ) has Activity equal to 7.64%

====

target: Signal peptidase I (Escherichia coli K-12) (UniProt P00803); experiment: Inhibition of full length Escherichia coli His6-tagged LepB expressed in Escherichia coli C43(DE3) assessed as residual activity at 0.001 uM using dabcyl-VEVGGTATAGAFSRPGLE-(EDANS) as substrate preincubated for 10 mins followed by substrate addition measured for 2 hrs by FRET assay relative to control
Sequence (P00803 whole entry): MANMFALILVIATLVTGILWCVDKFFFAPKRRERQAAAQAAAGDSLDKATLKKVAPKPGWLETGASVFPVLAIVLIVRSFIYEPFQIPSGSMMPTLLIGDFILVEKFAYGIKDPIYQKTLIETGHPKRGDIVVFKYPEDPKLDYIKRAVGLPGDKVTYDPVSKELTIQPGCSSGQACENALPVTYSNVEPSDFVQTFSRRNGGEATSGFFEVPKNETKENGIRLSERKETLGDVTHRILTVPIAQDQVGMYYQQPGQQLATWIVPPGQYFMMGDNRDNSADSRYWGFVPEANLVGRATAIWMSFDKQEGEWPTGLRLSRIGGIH
Give Activity for every item shown.
Report the figure in % without appending any unit label.

Per the records, this compound ( CCCCCCc1ccc(-c2ccc(C(=O)N3CC(CN)C[C@H]3C(=O)N[C@H](C(=O)N[C@@H](C)C(=O)N[C@@H](CC(N)=O)C(=O)N[C@@H](C)B3O[C@@H]4C[C@@H]5C[C@@H](C5(C)C)[C@]4(C)O3)[C@H](C)O)cc2)cc1 (some centres undefined) ) has Activity equal to 89.7

Per the records, this compound ( `CCCCCCc1ccc(-c2ccc(C(=O)N3CCC[C@H]3C(=O)N[C@H](C(=O)N[C@@H](C)C(=O)N[C@@H](CC(N)=O)C(=O)N[C@@H](C)B3O[C@@H]4C[C@@H]5C[C@@H](C5(C)C)[C@]4(C)O3)[C@H](C)O)cc2)cc1` ) has Activity equal to 94.4

Per the records, this compound ( `CCCCCCCCCC(=O)N1CCC[C@H]1C(=O)N[C@H](C(=O)N[C@@H](C)C(=O)N[C@@H](CC(N)=O)C(=O)N[C@@H](C)B1O[C@@H]2C[C@@H]3C[C@@H](C3(C)C)[C@]2(C)O1)[C@H](C)O` ) has Activity equal to 84.5

Per the records, this compound ( CCCCCCc1ccc(-c2ccc(C(=O)N3CC(CN)C[C@H]3C(=O)N[C@H](C(=O)N[C@@H](C)C(=O)N[C@@H](CC(N)=O)C(=O)N[C@@H](C)B(O)O)[C@H](C)O)cc2)cc1 (some centres undefined) ) has Activity equal to 86.8

====

target: Signal peptidase I (Escherichia coli K-12) (UniProt P00803); assay: Inhibition of full length Escherichia coli His6-tagged LepB expressed in Escherichia coli C43(DE3) at 100 uM using dabcyl-VEVGGTATAGAFSRPGLE-(EDANS) as substrate preincubated for 10 mins followed by substrate addition measured for 2 hrs by FRET assay relative to control
Give inhibition for every item shown.
Report the figure in % without appending any unit label.

Per the records, this molecule ( `CCCCCCCCCC(=O)N1CCC[C@H]1C(=O)N[C@H](C(=O)N[C@@H](C)C(=O)N[C@@H](CC(N)=O)C(=O)N[C@@H](C)C(=O)N1CCC[C@H]1C(=O)NC)[C@H](C)O` ) has inhibition equal to 31.3

Per the records, this molecule ( `CCCCCCCCCC(=O)N1CCC[C@H]1C(=O)N[C@H](C(=O)N[C@@H](C)C(=O)N[C@@H](CC(N)=O)C(=O)N[C@@H](C)C(=O)O)[C@H](C)O` ) has inhibition equal to 38

Per the records, this molecule ( `CC(=O)N[C@@H](C)C(=O)C(=O)NCc1cccc2ccccc12` ) has inhibition equal to 31

Per the records, this molecule ( `CCCCCCCCCC(=O)N1CCC[C@H]1C(=O)N[C@H](C(=O)N[C@@H](C)C(=O)N[C@@H](CC(N)=O)C(=O)N[C@@H](C)C(=O)C(=O)NCc1cccc2ccccc12)[C@H](C)O` ) has inhibition equal to 14.4

Per the records, this molecule ( CC(=O)N1CCC[C@H]1C(=O)N[C@H](C(=O)N[C@@H](C)C(=O)N[C@@H](CC(N)=O)C(=O)N[C@@H](C)B1O[C@@H]2C[C@@H]3C[C@@H](C3(C)C)[C@]2(C)O1)C(C)O (single isomer, unassigned) ) has inhibition equal to 26

Per the records, this molecule ( `CC(=O)N[C@@H](C)C(=O)N[C@@H](CC(N)=O)C(=O)N[C@@H](C)C(=O)C(=O)NC(C)(C)C` ) has inhibition equal to 13.3

====

target: Signal peptidase I (Escherichia coli K-12); experiment: Inhibition of full length Escherichia coli His6-tagged LepB expressed in Escherichia coli C43(DE3) assessed as residual activity at 0.078 uM using dabcyl-VEVGGTATAGAFSRPGLE-(EDANS) as substrate preincubated for 10 mins followed by substrate addition measured for 2 hrs by FRET assay relative to control
readout: Activity (%)
Report the figure in % without appending any unit label.

Per the records, this molecule ( `CCCCCCc1ccc(-c2ccc(C(=O)N3CCC[C@H]3C(=O)N[C@H](C(=O)N[C@@H](C)C(=O)N[C@@H](CC(N)=O)C(=O)N[C@@H](C)B3O[C@@H]4C[C@@H]5C[C@@H](C5(C)C)[C@]4(C)O3)[C@H](C)O)cc2)cc1` ) has Activity equal to 11.5

Per the records, this molecule ( `CCCCc1ccc(-c2ccc(C(=O)N[C@@H](CCN)C(=O)N[C@H](C(=O)N[C@@H](C)C(=O)N[C@@H](CCCCN)C(=O)N[C@@H](C)B3O[C@@H]4C[C@@H]5C[C@@H](C5(C)C)[C@]4(C)O3)[C@H](C)O)cc2)cc1` ) has Activity equal to 72.7

Per the records, this molecule ( `CCCCCCc1ccc(-c2ccc(C(=O)N3CCC[C@H]3C(=O)N[C@H](C(=O)N[C@@H](C)C(=O)N[C@@H](CC(N)=O)C(=O)N[C@@H](C)B(O)O)[C@H](C)O)cc2)cc1` ) has Activity equal to 95.5

Per the records, this molecule ( `CCCCCCCCCC(=O)N1CCC[C@H]1C(=O)N[C@H](C(=O)N[C@@H](C)C(=O)N[C@@H](CC(N)=O)C(=O)N[C@@H](C)B1O[C@@H]2C[C@@H]3C[C@@H](C3(C)C)[C@]2(C)O1)[C@H](C)O` ) has Activity equal to 36.4

Per the records, this molecule ( CCCCCCc1ccc(-c2ccc(C(=O)N3CC(CN)C[C@H]3C(=O)N[C@H](C(=O)N[C@@H](C)C(=O)N[C@@H](CC(N)=O)C(=O)N[C@@H](C)B(O)O)[C@H](C)O)cc2)cc1 (stereo not given in full) ) has Activity equal to 25.7

====

target: Signal peptidase I (Escherichia coli K-12); experiment: Inhibition of full length Escherichia coli His6-tagged LepB expressed in Escherichia coli C43(DE3) at 100 uM using dabcyl-VEVGGTATAGAFSRPGLE-(EDANS) as substrate preincubated for 10 mins followed by substrate addition measured for 2 hrs by FRET assay relative to control
readout: inhibition
Remember to quote the unit after the number.

Per the records, this compound ( `CC(=O)N[C@@H](C)B1O[C@@H]2C[C@@H]3C[C@@H](C3(C)C)[C@]2(C)O1` ) has inhibition equal to 18%

Per the records, this compound ( `CC(=O)N1CCC[C@H]1C(=O)N[C@H](C(=O)N[C@@H](C)C(=O)N[C@@H](CC(N)=O)C(=O)N[C@@H](C)C(=O)C(=O)NCc1cccc2ccccc12)[C@H](C)O` ) has inhibition equal to 32.3%

Per the records, this compound ( `CCCCCCCCCC(=O)N1CCC[C@H]1C(=O)N[C@H](C(=O)N[C@@H](C)C(=O)N[C@@H](CC(N)=O)C(=O)N[C@@H](C)C=O)[C@H](C)O` ) has inhibition equal to 100%
